molecular target: AR-VP16 (Homo sapiens, UniProt P10275); assay: AR-VP16 DNA Binding Assay, antagonist mode (HepG2 cells, 0.1 nM R1881); format: cell-based
quantity: IC50

Query string: Return reported IC50; argument: `Cc1cc(N2C(=O)C3(CCC3)N(c3ccc(C4CCOCC4)cc3)C2=S)cnc1C#N`
Result string: < 1000 nM

Query string: Check `N#Cc1ncc(N2C(=O)C3(CCC3)N(c3ccc(C(=O)NCc4ccc(Cl)cc4)c(F)c3)C2=S)cc1C(F)(F)F` too.
Result string: < 1000 nM

Query string: Check `CN1CCN(CCOc2cc(N3C(=S)N(c4cnc(C#N)c(C(F)(F)F)c4)C(=O)C34CCC4)ccc2F)CC1` too.
Result string: > 1000 nM

Query string: Check `N#Cc1ncc(N2C(=O)C3(CCC3)N(c3ccc(C(=O)Nc4ccccc4)c(F)c3)C2=S)cc1C(F)(F)F` too.
Result string: < 1000 nM

Query string: Check `Cc1cc(N2C(=O)C3(CCC3)N(c3ccc(C(=O)NCc4cccs4)c(F)c3)C2=S)cnc1C#N` too.
Result string: < 1000 nM

Query string: Check `COc1cc(F)ccc1N1C(=S)N(c2cnc(C#N)c(C(F)(F)F)c2)C(=O)C12CCC2` too.
Result string: < 1000 nM

Query string: Check `N#Cc1ncc(N2C(=O)C3(CCC3)N(c3ccc(OCC(=O)O)c(F)c3)C2=S)cc1C(F)(F)F` too.
Result string: > 1000 nM

====

Biological target: AR-VP16 (Homo sapiens, UniProt P10275)
Sequence (P10275 560-920 limits assumed): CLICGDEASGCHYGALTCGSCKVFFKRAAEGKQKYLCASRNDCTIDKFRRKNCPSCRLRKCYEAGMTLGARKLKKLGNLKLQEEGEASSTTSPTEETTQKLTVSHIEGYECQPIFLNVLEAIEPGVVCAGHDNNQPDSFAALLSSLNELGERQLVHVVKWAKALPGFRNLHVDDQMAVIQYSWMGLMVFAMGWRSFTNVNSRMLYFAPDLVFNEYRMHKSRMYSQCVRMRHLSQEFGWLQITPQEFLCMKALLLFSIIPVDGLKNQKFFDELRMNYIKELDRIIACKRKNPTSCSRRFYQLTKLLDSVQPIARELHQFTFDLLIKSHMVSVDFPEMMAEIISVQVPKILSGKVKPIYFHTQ
Experiment: AR-VP16 DNA Binding Assay, antagonist mode (HepG2 cells, 0.1 nM R1881)
quantity: IC50

Query string: Which measured IC50 belongs to `N#Cc1ncc(N2C(=O)C3(CCC3)N(c3ccc(OCCN4CCNCC4)c(F)c3)C2=S)cc1C(F)(F)F` , tested on AR-VP16 (Homo sapiens, UniProt P10275)?
Result string: < 1000 nM

Query string: Check `N#Cc1ncc(N2C(=O)C3(CCC3)N(c3cccc(F)c3F)C2=S)cc1C(F)(F)F` too.
Result string: < 1000 nM

Query string: Check `N#Cc1ncc(N2C(=O)C3(CCC3)N(c3ccccc3Oc3ccccc3)C2=S)cc1C(F)(F)F` too.
Result string: > 1000 nM

Query string: Check `CN1CCC(Oc2ccc(N3C(=S)N(c4cnc(C#N)c(C(F)(F)F)c4)C(=O)C34CCC4)c(F)c2)CC1` too.
Result string: < 1000 nM

Query string: Check `CS(=O)(=O)N1CCC(Oc2ccc(N3C(=S)N(c4cnc(C#N)c(C(F)(F)F)c4)C(=O)C34CCC4)cc2)CC1` too.
Result string: < 1000 nM

Query string: Check `Cc1cc(N2C(=O)C3(CCC3)N(c3ccc(OCCN4CCN(CC(F)(F)F)CC4)cc3)C2=S)cnc1C#N` too.
Result string: < 1000 nM

Query string: Check `Cc1cc(N2C(=O)C3(CCC3)N(c3ccc(C(=O)NCCCN4CCCC4)c(F)c3)C2=S)cnc1C#N` too.
Result string: > 1000 nM

Query string: Check `N#Cc1ncc(N2C(=O)C3(CCC3)N(c3ccc(Oc4ccccc4)cc3)C2=S)cc1C(F)(F)F` too.
Result string: < 1000 nM

====

target: AR-VP16 (Homo sapiens); experiment: AR-VP16 DNA Binding Assay, antagonist mode (HepG2 cells, 0.1 nM R1881)
Would you mind telling me the reported IC50 of each entry?

Query string: Return reported IC50; argument: N#Cc1ncc(N2C(=O)C3(CCC3)N(c3ccc(F)cc3O)C2=S)cc1C(F)(F)F [Compound 38]
Result string: > 1000 nM

Query string: Check CN(Cc1ccncc1)Cc1ccc(N2C(=S)N(c3cnc(C#N)c(C(F)(F)F)c3)C(=O)C23CCC3)cc1 [Compound 92] too.
Result string: < 1000 nM

Query string: Check N#Cc1ncc(N2C(=O)C3(CCC3)N(c3ccc(C(=O)Nc4ccccn4)c(F)c3)C2=S)cc1C(F)(F)F [Compound 261] too.
Result string: < 1000 nM

Query string: Check N#Cc1ncc(N2C(=O)C3(CCC3)N(c3ccc(OC4CCNCC4)cc3)C2=S)cc1C(F)(F)F [Compound 211] too.
Result string: < 1000 nM

Query string: Check N#Cc1ncc(N2C(=O)C3(CCC3)N(c3ccc(C(=O)NCCN4CCCC4)c(F)c3)C2=S)cc1C(F)(F)F [Compound 234] too.
Result string: > 1000 nM

Query string: Check O=C1N(c2ccc3nnc(C(F)(F)F)n3n2)C(=S)N(c2ccc(O)cc2)C12CCC2 [Compound 2] too.
Result string: > 1000 nM

Query string: Check N#Cc1ncc(N2C(=O)C3(CCC3)N(c3ccc(OCCc4ccccn4)c(F)c3)C2=S)cc1C(F)(F)F [Compound 130] too.
Result string: < 1000 nM

Query string: Check N#Cc1ncc(N2C(=O)C3(CCC3)N(c3ccc(OCCCN4CCCC4)c(F)c3)C2=S)cc1C(F)(F)F [Compound 185] too.
Result string: < 1000 nM

Query string: Check CNC(=O)c1ccc(N2C(=S)N(c3cnc(C#N)c(C)c3)C(=O)C23CCC3)cc1C [Compound 106] too.
Result string: < 1000 nM

Query string: Check N#Cc1ncc(N2C(=O)C3(CCC3)N(c3cccc(CO)c3)C2=S)cc1C(F)(F)F [Compound 67] too.
Result string: < 1000 nM

Query string: Check Cc1cc(N2C(=O)C3(CCC3)N(c3ccc(-c4ccco4)cc3)C2=S)cnc1C#N [Compound 116] too.
Result string: < 1000 nM

Query string: Check CNC(=O)c1ccc(N2C(=S)N(c3cnc(C#N)c(C(F)(F)F)c3)C(=O)C23CCC3)cc1 [Compound 79] too.
Result string: < 1000 nM

Query string: Check Cc1cc(N2C(=O)C3(CCC3)N(c3ccc(O)c(F)c3)C2=S)cnc1C#N [Compound 54] too.
Result string: > 1000 nM

Query string: Check N#Cc1ncc(N2C(=O)C3(CCC3)N(c3ccc(Oc4cnccn4)cc3)C2=S)cc1C(F)(F)F [Compound 207] too.
Result string: < 1000 nM

Query string: Check CCOC(=O)COc1ccc(N2C(=S)N(c3cnc(C#N)c(C(F)(F)F)c3)C(=O)C23CCC3)cc1F [Compound 132] too.
Result string: > 1000 nM

Query string: Check N#Cc1ncc(N2C(=O)C3(CCC3)N(c3ccc(OC(F)(F)F)cc3)C2=S)cc1C(F)(F)F [Compound 44] too.
Result string: < 1000 nM

Query string: Check N#Cc1ncc(N2C(=O)C3(CCC3)N(c3ccc(OCCN4CCCC4)c(F)c3)C2=S)cc1C(F)(F)F [Compound 127] too.
Result string: < 1000 nM

Query string: Check COCCOc1ccc(N2C(=S)N(c3cnc(C#N)c(C)c3)C(=O)C23CCC3)cc1F [Compound 168] too.
Result string: < 1000 nM

Query string: Check COc1ccc(N2C(=S)N(c3cnc(C#N)c(C(F)(F)F)c3)C(=O)C23CCC3)cc1 [Compound 204] too.
Result string: < 1000 nM

Query string: Check N#Cc1ncc(N2C(=O)C3(CCC3)N(c3ccc(OCc4ccccc4)c(F)c3)C2=S)cc1C(F)(F)F [Compound 128] too.
Result string: < 1000 nM

Query string: Check Cc1cc(N2C(=O)C3(CCC3)N(c3ccc(OC4CCN(C)CC4)c(F)c3)C2=S)cnc1C#N [Compound 192] too.
Result string: > 1000 nM

Query string: Check N#Cc1ncc(N2C(=O)C3(CCC3)N(c3ccc(OCCc4ccccc4)c(F)c3)C2=S)cc1C(F)(F)F [Compound 188] too.
Result string: < 1000 nM

Query string: Check N#Cc1ncc(N2C(=O)C3(CCC3)N(c3ccc(OCc4ccncc4)c(F)c3)C2=S)cc1C(F)(F)F [Compound 156] too.
Result string: < 1000 nM

Query string: Check Cc1cc(N2C(=O)C3(CCC3)N(c3ccc(C(=O)Nc4cccc(F)c4)c(F)c3)C2=S)cnc1C#N [Compound 298] too.
Result string: < 1000 nM

Query string: Check N#Cc1ncc(N2C(=O)C3(CCC3)N(c3ccc(CO)cc3)C2=S)cc1C(F)(F)F [Compound 69] too.
Result string: < 1000 nM

Query string: Check N#Cc1ncc(N2C(=O)C3(CCC3)N(c3ccc(OCCCN4CCOCC4)c(F)c3)C2=S)cc1C(F)(F)F [Compound 150] too.
Result string: < 1000 nM

Query string: Check N#Cc1ncc(N2C(=O)C3(CCC3)N(c3ccc(C(=O)NCc4cccs4)c(F)c3)C2=S)cc1C(F)(F)F [Compound 260] too.
Result string: < 1000 nM

Query string: Check CN(C)S(=O)(=O)c1ccc(N2C(=S)N(c3cnc(C#N)c(C(F)(F)F)c3)C(=O)C23CCC3)cc1 [Compound 121] too.
Result string: > 1000 nM

Query string: Check N#Cc1ncc(N2C(=O)C3(CCC3)N(c3ccc(OCCC4CCOCC4)c(F)c3)C2=S)cc1C(F)(F)F [Compound 180] too.
Result string: < 1000 nM

Query string: Check N#Cc1ncc(N2C(=O)C3(CCC3)N(c3cccc(OC(F)(F)F)c3)C2=S)cc1C(F)(F)F [Compound 45] too.
Result string: < 1000 nM
